System Tested: T1, human EphA8 (Homo sapiens, UniProt P29322)
T1 construct: a protein of the extracellular region of each human Eph receptor fused with the SEAP protein and the His tag; made in house; host or cells: Expi293F cells (culture supernatant)
T1 sequence (P29322 28-542 limits assumed): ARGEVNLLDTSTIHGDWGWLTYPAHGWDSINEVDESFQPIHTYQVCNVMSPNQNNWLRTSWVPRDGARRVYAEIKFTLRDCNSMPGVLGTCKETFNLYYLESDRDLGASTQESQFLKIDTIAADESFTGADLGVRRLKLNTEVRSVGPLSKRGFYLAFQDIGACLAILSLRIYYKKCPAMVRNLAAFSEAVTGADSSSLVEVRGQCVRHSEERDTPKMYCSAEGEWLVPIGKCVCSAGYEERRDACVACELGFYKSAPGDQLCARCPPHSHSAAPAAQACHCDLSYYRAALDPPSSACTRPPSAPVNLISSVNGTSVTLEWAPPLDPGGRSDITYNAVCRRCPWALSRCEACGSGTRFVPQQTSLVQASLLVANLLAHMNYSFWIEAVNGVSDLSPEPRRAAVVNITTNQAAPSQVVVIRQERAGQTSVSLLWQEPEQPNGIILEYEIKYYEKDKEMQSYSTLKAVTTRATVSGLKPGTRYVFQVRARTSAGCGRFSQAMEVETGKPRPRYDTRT
Assay Explanation: Selectivity ELISA of humanized antibodies for human Eph receptor
Format: binding
Condition Notes: coated protein 1 nM
Metric Name: hEphA8-SEAP-: absorbance at 450 nm, percentage with respect to hEphA4-SEAP-His as 100%

Examples with answers:
Molecule	Result
92 (antibody, V domains shown, constant regions without entry; synthetic humanized antibody light chain variable region sequence; synthetic humanized antibody heavy chain variable region sequence) VL: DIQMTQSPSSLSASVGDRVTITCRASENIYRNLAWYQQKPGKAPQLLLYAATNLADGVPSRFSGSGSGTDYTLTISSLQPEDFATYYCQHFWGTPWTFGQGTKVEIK VH: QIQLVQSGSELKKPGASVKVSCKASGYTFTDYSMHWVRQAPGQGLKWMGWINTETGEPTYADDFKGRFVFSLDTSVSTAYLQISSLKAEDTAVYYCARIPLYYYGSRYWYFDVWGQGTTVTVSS	6.7%
76 (antibody, V domains shown, synthetic humanized antibody heavy chain variable region sequence; synthetic humanized antibody light chain variable region sequence) VH: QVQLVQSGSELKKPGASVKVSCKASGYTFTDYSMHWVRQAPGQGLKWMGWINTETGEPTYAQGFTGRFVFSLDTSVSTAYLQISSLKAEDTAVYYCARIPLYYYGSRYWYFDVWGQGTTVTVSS VL: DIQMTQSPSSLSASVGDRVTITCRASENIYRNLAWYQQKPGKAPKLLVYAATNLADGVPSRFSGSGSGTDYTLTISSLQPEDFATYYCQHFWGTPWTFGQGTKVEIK	5.5%
78 (antibody, V domains shown, synthetic humanized antibody heavy chain variable region sequence; synthetic humanized antibody light chain variable region sequence) VH: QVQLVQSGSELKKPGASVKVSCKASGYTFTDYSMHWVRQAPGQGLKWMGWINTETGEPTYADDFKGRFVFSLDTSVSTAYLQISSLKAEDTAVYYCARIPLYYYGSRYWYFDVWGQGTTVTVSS VL: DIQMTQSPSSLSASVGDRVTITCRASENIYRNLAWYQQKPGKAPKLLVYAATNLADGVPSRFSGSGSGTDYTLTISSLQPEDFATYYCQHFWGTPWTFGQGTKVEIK	5.4%

# input for lookup
# input Requested read-out: hEphA8-SEAP-: absorbance at 450 nm, percentage with respect to hEphA4-SEAP-His as 100%. Entry: 134 (antibody, V domains shown, synthetic humanized antibody heavy chain variable region sequence; synthetic humanized antibody light chain variable region sequence) VH: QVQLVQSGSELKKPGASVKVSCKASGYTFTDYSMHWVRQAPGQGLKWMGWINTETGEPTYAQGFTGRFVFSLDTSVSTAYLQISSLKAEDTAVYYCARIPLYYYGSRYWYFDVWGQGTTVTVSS VL: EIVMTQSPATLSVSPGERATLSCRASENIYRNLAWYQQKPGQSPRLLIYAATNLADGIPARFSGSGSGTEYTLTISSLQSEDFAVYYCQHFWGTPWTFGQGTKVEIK
# output 5.7%

Provenance of the data: patent US10428140B2
